System: NCI-H226 lung
procedureSummary: NCI tumour cell line growth inhibition, 48 h
attributeMeasured: GI50

# smilesData, GI50
data = [
    ("Oc1ccccc1/C=N/Nc1ccc2ccccc2n1", "4.6 µM"),
    ("COc1cccc(/C=C/C(=O)c2cc3c(N)c(C(=O)Nc4ccccc4C)sc3nc2C)c1", "1.07 µM"),
    ("CC(=O)[CH-]C(=O)c1ccccc1.CC(=O)[CH-]C(=O)c1ccccc1.CCCCCCCCCCCCCCCCCC(=O)[O-].CCCCCCCCCCCCCCCCCC(=O)[O-].[Ti+4]", "14.5 µM"),
]

# context switch: different compound, same GI50
Consider the compound COC1(C(=O)N2Cc3nc(Cl)nc(N[C@H](C)c4cc(N)cc(C(F)(F)F)c4)c3C2)CCOCC1 and give its measured GI50. 18.2 µM

====

System: SNB-78 CNS
procedureSummary: NCI tumour cell line growth inhibition, 48 h
attributeMeasured: TGI

# compound, TGI
measured = [
    ("C=CC(=O)c1ccc2c(c1)OCCOCCOCCOCCOCCO2", "35.2 µM"),
    ("CCOC(=O)C(OCC1CC=CCC1)Sc1ccccc1 (stereo unspecified)", "> 100 µM"),
]

Consider the compound O=C1NC(c2ccc(O)cc2)C2CCC1C2 (stereo unspecified) and give its measured TGI. > 100 µM

Consider the compound Cc1ccccc1C(C#N)C(=O)C(=O)Nc1nc([N+](=O)[O-])cs1 (stereo unspecified) and give its measured TGI. > 100 µM

Consider the compound N#CCCN(c1ccc(C=Nc2cccc([N+](=O)[O-])c2)cc1)S(=O)(=O)c1ccccc1 and give its measured TGI. > 100 µM

Consider the compound FC(F)(F)c1nc(-c2ccccc2Cl)[nH]c1C(F)(F)F and give its measured TGI. > 29.5 µM

Consider the compound COC1OC(=O)[C@H]2O[N+]([O-])=C(C)[C@@H]12 (stereo partly specified) and give its measured TGI. > 100 µM

Consider the compound O=[N+]([O-])[C@@H]1C2C=CC(C2)[C@H]1Cl (stereo partly specified) and give its measured TGI. > 100 µM

Consider the compound N#CC1(c2nc3ccccc3o2)C(=O)C(=O)N(C2C3CC4CC(C3)CC2C4)C(=O)C1=O (stereo unspecified) and give its measured TGI. > 100 µM

Consider the compound COC1O[C@H]2CCN(C(=O)OCc3ccccc3)[C@H]2[C@H]1OCc1ccccc1 (stereo partly specified) and give its measured TGI. > 100 µM

Consider the compound CCOC(=O)C1=C(C)Nc2ccccc2S1 and give its measured TGI. > 100 µM

====

Catalogue of TGI values
Tested on: MCF7 breast
procedureSummary: NCI tumour cell line growth inhibition, 48 h

The following compounds have reported results that may help.
# compound, TGI
data = [
    ("O=c1oc2ccccc2c(O)c1C(c1cc(OCc2ccccc2)cc(OCc2ccccc2)c1)c1c(O)c2ccccc2oc1=O", "48.5 µM"),
    ("O=c1c2ccccc2[nH]c(=S)n1-c1ccc(N=Nc2cccc3c(O)cccc23)cc1", "35.2 µM"),
    ("Fc1cccc(COc2ccc(Nc3ncncc3C#Cc3ccccc3)cc2Cl)c1", "> 25 µM"),
    ("N#Cc1c(N)[nH]c(=S)c(C#N)c1-c1cccc(Cl)c1", "> 100 µM"),
    ("CSC1=Nc2ccccc2N(C)c2c1c(-c1ccccc1)nn2C", "> 100 µM"),
    ("CCOC(=O)c1cc2c([N+](=O)[O-])c(NC(C)=O)ccc2s1", "> 100 µM"),
    ("CCCCc1c(O)nc(Nc2nc3ccccc3[nH]2)[nH]c1=O", "> 100 µM"),
    ("N#CC1=C(N)OC2=C(CSc3ccccc32)C1c1ccc(Br)cc1 (stereo not given)", "13.8 µM"),
    ("c1cc(-c2cnc(-c3ccc4c(c3)CCCO4)o2)ccn1", "28.7 µM"),
]

# context switch: different compound, same TGI
Consider the compound Cc1ccc2c(C(C[N+](=O)[O-])c3cccs3)c(-c3ccccc3)[nH]c2c1 (stereo not given) and give its measured TGI. 12.8 µM
